- target.entity: Nitric oxide synthase, inducible (Mus musculus)
- assay.procedure: Compound was evaluated for inhibitory activity against iNOS obtained from RAW 264.7 cells.
Answer each item with its documented IC50.
# output: bare number, implied unit µM

COC(=O)[C@@H](N)[C@H]1CC[C@H](/N=C(/C)N)C1 has a reported IC50 of 50

COC(=O)[C@@H](N)[C@H]1CC[C@@H](N=C(C)N)C1 has a reported IC50 of 47

NC1=NC[C@H](C[C@H](N)C(=O)O)C1 has a reported IC50 of 25

CC(=N)NCCC[C@H](N)C(=O)O has a reported IC50 of 9

CC(=N)N1CC[C@H](C[C@H](N)C(=O)O)C1 has a reported IC50 of 40

NC1=NC[C@@H](C[C@H](N)C(=O)O)C1 has a reported IC50 of 36

---

Answer each item with its documented IC50.
- target.entity: Nitric oxide synthase, inducible (Mus musculus, UniProt P29477)
- Sequence (P29477 whole entry): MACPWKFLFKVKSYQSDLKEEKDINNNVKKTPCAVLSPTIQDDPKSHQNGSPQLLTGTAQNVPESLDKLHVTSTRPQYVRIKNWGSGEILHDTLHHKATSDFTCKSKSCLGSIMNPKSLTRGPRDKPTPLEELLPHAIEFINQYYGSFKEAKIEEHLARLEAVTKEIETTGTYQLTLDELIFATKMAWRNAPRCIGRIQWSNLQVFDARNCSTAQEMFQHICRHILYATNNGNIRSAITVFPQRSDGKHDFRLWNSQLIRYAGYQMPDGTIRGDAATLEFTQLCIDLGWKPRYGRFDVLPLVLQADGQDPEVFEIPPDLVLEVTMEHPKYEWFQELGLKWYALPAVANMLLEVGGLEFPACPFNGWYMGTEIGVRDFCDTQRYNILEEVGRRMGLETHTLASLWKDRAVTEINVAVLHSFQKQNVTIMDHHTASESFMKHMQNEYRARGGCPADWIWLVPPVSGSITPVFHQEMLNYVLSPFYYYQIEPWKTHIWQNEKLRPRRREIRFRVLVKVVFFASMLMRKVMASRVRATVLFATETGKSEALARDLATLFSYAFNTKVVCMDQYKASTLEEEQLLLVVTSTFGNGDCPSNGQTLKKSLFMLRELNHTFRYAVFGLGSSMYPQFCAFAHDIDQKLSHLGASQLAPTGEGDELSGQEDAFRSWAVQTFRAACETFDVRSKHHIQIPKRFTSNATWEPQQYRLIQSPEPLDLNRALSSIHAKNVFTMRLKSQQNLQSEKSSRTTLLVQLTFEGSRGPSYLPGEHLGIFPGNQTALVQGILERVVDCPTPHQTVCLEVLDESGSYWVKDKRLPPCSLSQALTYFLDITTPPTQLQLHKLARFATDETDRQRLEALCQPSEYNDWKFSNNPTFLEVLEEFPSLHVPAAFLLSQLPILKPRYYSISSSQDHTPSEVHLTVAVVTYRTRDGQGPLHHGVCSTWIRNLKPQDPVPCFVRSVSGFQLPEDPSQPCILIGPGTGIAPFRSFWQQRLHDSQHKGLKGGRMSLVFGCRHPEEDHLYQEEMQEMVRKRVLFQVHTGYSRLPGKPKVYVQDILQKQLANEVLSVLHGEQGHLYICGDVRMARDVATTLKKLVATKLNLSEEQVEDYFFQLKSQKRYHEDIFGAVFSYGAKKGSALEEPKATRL
- assay.procedure: Compound was evaluated for inhibitory activity against iNOS obtained from RAW 264.7 cells.

Value (IC50, Nitric oxide synthase, inducible (Mus musculus, UniProt P29477)) for record COC(=O)[C@@H](N)[C@@H]1CC[C@H](/N=C(/C)N)C1 = > 200 µM

Value (IC50, Nitric oxide synthase, inducible (Mus musculus, UniProt P29477)) for record COC(=O)[C@@H](N)[C@@H]1CC[C@@H](N=C(C)N)C1 = > 200 µM

Value (IC50, Nitric oxide synthase, inducible (Mus musculus, UniProt P29477)) for record CC(=N)N1CC[C@@H](C[C@H](N)C(=O)O)C1 = > 200 µM
